Experiment: Therapeutic index, ratio of TC50 for african green monkey Vero cells to IC50 for Rift valley fever virus
Type: cell-based
Details: read-out: TI
Hi there, I'd appreciate the recorded selectivity ratio for every entry that follows.
Numbers only.

Use these answered entries as a reference point.
{"compound": "O=c1[nH]c2c(c3cc4c(cc13)OCO4)C[C@H](O)[C@@H](O)[C@H]2O", "experimental.result": 5}
{"compound": "CC(=O)O[C@@H]1[C@@H](O)[C@@H](O)[C@@H]2NC(=O)c3cc4c(cc3[C@H]2[C@H]1O)OCO4 [LYCORICIDINE MONOACETATE]", "experimental.result": 4.4}
{"compound": "CO[C@@H]1C=C[C@@]23c4cc5c(cc4C(O)O[C@H]2CN(C)[C@H]3C1)OCO5 (some centres undefined)", "experimental.result": 3.5}

Moving on to another compound below.
Challenge: # query: selectivity ratio of entry O=C1N[C@H]2[C@H](O)[C@H](O)[C@@H](O)[C@H](O)[C@@H]2c2cc3c(c(O)c21)OCO3
Response given: 3.1
